- Assay explanation: label from the status in PepcDB records
Measured quantity: protein production

INSERT INTO results (query_sequence, measured_value) VALUES
  ('VTRRIAICAPSTPFTREDSARVIALAAAEFPDLSLSFHEQCFASEGHFAGSDALRLSAFLECANDDAFEAVWFVRGGYGANRIAEDALARLGRAASAKQYLGYSDAGTLLAALYAHRIGRSVHAPMPVDIRRPEGESAVRRTLGWLAGAREGLEPTLGAGAPAVAFNLMTLAMLCGTRLLPDLSGHVVMIEEVAEHHYAVDRLLFHVTSCLADAGIAGLRLGRVSDVPENDRPFGCSVEEMARHWCHRAGIAFLGTADIGHDVDNRIVPFGLA', 'not failed'),
  ('SDSTAGTDAVAVGGTFQFHSPDGKMEIFYDEADRQQLPDIGGDSLMEEGTQINLSDFENQVVILNAWGQWCAPCRSESDDLQIIHEELQAAGNGDTPGGTVLGINVRDYSRDIAQDFVTDNGLDYPSIYDPPFMTAASLGGVPASVIPTTIVLDKQHRPAAVFLREVTSKDVLDVALPLVDEA', 'not failed');
